B1: Peroxisome proliferator-activated receptor delta, residues 71 to 145; numbered along this chain, Q03181 (parent)
chain: NMECRVCGDKASGFHYGVHACEGCKGFFRRTIRMKLEYEKCERSCKIQKKNRNKCQYCRFQKCLALGMSHNAIRF

variants of: B1; assay: abundance fitness (aPCA) (normalised: wild type 0, dead -1); higher = more abundant; growth selection in yeast, the domain comes from the species named; settings: Homo sapiens
Assignment: determine reported abundance fitness for the given variants.
Numbers only.

Worked cases, answers included:
SEQUENCE_CHAIN: NMECRVCGDKASGFHYGVHKCEGCKGFFRRTIRMKLEYEKCERSCKIQKKNRNKCQYCRFQKCLALGMSHNAIRF
abundance fitness: -0.771
//
SEQUENCE_CHAIN: NMECRCCGDKASGFHYGVHACEGCKGFFRRTIRMKLEYEKCERSCKIQKKNRNKCQYCRFQKCLALGMSHNAIRF
abundance fitness: -0.873
//
SEQUENCE_CHAIN: NMECRVCGDKASGFHYGVHACEGCKGFFRRTIRMKLEYEKCERSCKIQKKNLNKCQYCRFQKCLALGMSHNAIRF
abundance fitness: -0.087

Please state, for each entry, its recorded abundance fitness.
1. NMECRVCGDKASGFHYGVHACEGCKGFFRRTIRMKLEYEKCERSCKKQKKNRNKCQYCRFQKCLALGMSHNAIRF
2. NMECRVCGDKASGFHYGVHACEGCKGFFRRTIRMKLEYEKEERSCKIQKKNRNKCQYCRFQKCLALGMSHNAIRF
3. NMECRVCGDKASGFHYGVTACEGCKGFFRRTIRMKLEYEKCERSCKIQKKNRNKCQYCRFQKCLALGMSHNAIRF
4. NMECRVCGDKASGFHYGVHACEGCKGFFRRTIRMKLEYEKCERSCKIQKKNRNKCQYCRFQKCLALGMSHNAIRG
5. NMECRVCGDKASGFHYGVHACEQCKGFFRRTIRMKLEYEKCERSCKIQKKNRNKCQYCRFQKCLALGMSHNAIRF

Reply |
1. -0.453
2. -0.729
3. 0.041
4. 0.218
5. -0.009
